test system: MCF7 breast; assay: NCI-60 one-dose screen, 48 h; settings: 10 µM unless noted
Compounds without any hit were thinned out: in the full panel of roughly 83,000, 20% have a hit. Activity calls are given as the source filed them. The calls were made as follows: active = growth percent below 10; inactive = the rest.
Output constraint: value belongs to 1 (active), 0 (inactive)

Examples from the recorded data:
COc1ccc(C2=NN(c3nc(-c4ccc(OC)cc4)c(C#N)c(=O)n3C)C(=O)CC2)cc1 | 0
COc1ccc2c(c1)c1nc3cc(C)c(C)cc3nc1n2CCN(C)C | 1
CC(=O)O[C@@H]1CCN2C(=O)N(C)c3ccccc3[C@@H]2C1 | 0

Attention now shifts to the item below.
# input Per the assay record, what outcome was assigned to `CN1CCN(CC#CCn2c3c(c4ccccc42)C[C@]2(C)[C@H]4CC[C@@H]5[C@H]6[C@H]7OC(=O)[C@@]6(CCC7(C)C)CC[C@@]5(C)[C@]4(C)CC[C@H]2C3(C)C)CC1` ?
# output 0
